Where do the numbers come from? From ChEMBL document CHEMBL6092199.

- STUDY_SYSTEM: Replicase polyprotein 1ab (Severe acute respiratory syndrome coronavirus 2, UniProt P0DTD1)

| STRUCTURE_AS_SMILES | UNIT_SYMBOL | IC50 |
| --- | --- | --- |
| Cc1ccc(CNC(=O)C(=O)O)cc1C(=O)N[C@H](C)c1cccc2ccccc12 | µM | 5.9 |
| Cc1ccc(CNC(=O)c2ccc(C(C)(C)C)cc2)cc1C(=O)N[C@H](C)c1cccc2ccccc12 | µM | 3.1 |

====

Quick reference for CC50 at 72 h among some compounds
- TEST_PROTOCOL: Cytotoxicity against african green monkey Vero E6 cells incubated for 3 days by CCK8 assay
- Format: toxicity, cell-based, Vero C1008
- CONDITIONS: chlorocebus sabaeus, time 3 day
MEASURED_QUANTITY: CC50 at 72 h

| STRUCTURE_AS_SMILES | MEASURED_QUANTITY | READING |
| --- | --- | --- |
| Cc1ccc(CNC(=O)C(N)=O)cc1C(=O)N[C@H](C)c1cccc2ccccc12 | CC50 at 72 h | > 100 µM |
| Cc1ccc(CNC(=O)C(=O)O)cc1C(=O)N[C@H](C)c1cccc2ccccc12 | CC50 at 72 h | > 100 µM |
| Cc1ccc(CNC(=O)c2ccccc2F)cc1C(=O)N[C@H](C)c1cccc2ccccc12 | CC50 at 72 h | > 100 µM |
| Cc1ccc(CNC(=O)C(F)(F)F)cc1C(=O)N[C@H](C)c1cccc2ccccc12 | CC50 at 72 h | > 100 µM |
| Cc1ccc(N)cc1C(=O)N[C@H](C)c1cccc2ccccc12 | CC50 at 72 h | > 100 µM |
| Cc1ccc(CNC(=O)c2ccc(F)cc2)cc1C(=O)N[C@H](C)c1cccc2ccccc12 | CC50 at 72 h | > 100 µM |
| Cc1ccc(C(=O)NCc2ccc(C)c(C(=O)N[C@H](C)c3cccc4ccccc34)c2)cc1 | CC50 at 72 h | > 100 µM |
| Cc1ccc(CNC(=O)c2ccccc2[N+](=O)[O-])cc1C(=O)N[C@H](C)c1cccc2ccccc12 | CC50 at 72 h | 55.6 µM |
| Cc1ccc(CNC(=O)c2ccc(C(F)(F)F)c(F)c2)cc1C(=O)N[C@H](C)c1cccc2ccccc12 | CC50 at 72 h | > 100 µM |
| Cc1ccc(CNC(=O)c2cccc(F)c2F)cc1C(=O)N[C@H](C)c1cccc2ccccc12 | CC50 at 72 h | > 100 µM |
| Cc1ccc(CNC(=O)c2ccc(C(F)(F)F)cc2F)cc1C(=O)N[C@H](C)c1cccc2ccccc12 | CC50 at 72 h | > 100 µM |
| Cc1ccc(CNC(=O)c2cc(C(F)(F)F)cc(C(F)(F)F)c2)cc1C(=O)N[C@H](C)c1cccc2ccccc12 | CC50 at 72 h | > 100 µM |
| Cc1ccc(CNC(=O)c2cccc(C(F)(F)F)c2F)cc1C(=O)N[C@H](C)c1cccc2ccccc12 | CC50 at 72 h | > 100 µM |
| Cc1ccc(CNC(=O)c2ccc(F)cc2F)cc1C(=O)N[C@H](C)c1cccc2ccccc12 | CC50 at 72 h | > 100 µM |
| Cc1ccc(CNC(=O)c2cccc(C(F)(F)F)c2C)cc1C(=O)N[C@H](C)c1cccc2ccccc12 | CC50 at 72 h | > 100 µM |
| Cc1ccc(CN)cc1C(=O)N[C@H](C)c1cccc2cc3ccccc3cc12 | CC50 at 72 h | 40.5 µM |
| Cc1ccc(CNC(=O)c2ccc([N+](=O)[O-])cc2)cc1C(=O)N[C@H](C)c1cccc2ccccc12 | CC50 at 72 h | > 100 µM |
| CCOC(=O)C(=O)NCc1ccc(C)c(C(=O)N[C@H](C)c2cccc3ccccc23)c1 | CC50 at 72 h | > 100 µM |
